Overview of reported pIC50 across a group of molecules:
target: CDK12 (aa686-1082)/Cyclin K (Homo sapiens (Human), UniProt Q9NYV4); test: Enzyme activity test, mobility shift assay (Table 1); assay type: biochemical; conditions: 2 mM ATP; read-out: CDK12 kinase IC50
Sequence (Q9NYV4 686-1082): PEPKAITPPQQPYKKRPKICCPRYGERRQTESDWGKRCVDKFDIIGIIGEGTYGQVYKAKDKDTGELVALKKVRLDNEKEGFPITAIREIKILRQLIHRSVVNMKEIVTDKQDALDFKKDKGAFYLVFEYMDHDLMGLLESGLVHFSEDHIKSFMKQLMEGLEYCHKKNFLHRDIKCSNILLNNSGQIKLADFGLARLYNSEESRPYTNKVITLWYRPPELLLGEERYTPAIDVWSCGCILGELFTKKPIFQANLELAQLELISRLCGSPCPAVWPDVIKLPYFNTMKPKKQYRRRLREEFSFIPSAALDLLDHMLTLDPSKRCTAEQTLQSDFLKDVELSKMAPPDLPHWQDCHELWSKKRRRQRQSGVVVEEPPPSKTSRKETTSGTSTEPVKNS
Sequence (O75909 whole entry partner, the tested form may be a part): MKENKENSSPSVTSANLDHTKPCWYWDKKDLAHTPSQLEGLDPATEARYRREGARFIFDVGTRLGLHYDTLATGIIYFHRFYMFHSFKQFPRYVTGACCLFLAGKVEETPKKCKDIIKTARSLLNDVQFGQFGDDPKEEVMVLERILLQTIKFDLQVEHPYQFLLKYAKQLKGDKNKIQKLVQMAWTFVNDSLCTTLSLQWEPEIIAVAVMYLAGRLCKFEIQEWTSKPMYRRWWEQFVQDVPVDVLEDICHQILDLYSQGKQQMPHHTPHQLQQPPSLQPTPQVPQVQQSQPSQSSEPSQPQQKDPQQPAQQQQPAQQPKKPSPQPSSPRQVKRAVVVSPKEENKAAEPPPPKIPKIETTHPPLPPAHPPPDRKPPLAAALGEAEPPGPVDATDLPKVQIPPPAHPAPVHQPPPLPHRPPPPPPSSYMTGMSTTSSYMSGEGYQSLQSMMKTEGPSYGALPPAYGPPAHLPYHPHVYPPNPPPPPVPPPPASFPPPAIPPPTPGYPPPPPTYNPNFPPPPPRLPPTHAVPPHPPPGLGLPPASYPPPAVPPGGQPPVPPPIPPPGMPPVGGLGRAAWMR
pIC50: −log10 of the molar value.

Solved entries:
molecule=O=C1OCCN1c1ccc2c(-c3nc(N[C@H]4CCCNC4)ncc3C(F)(F)F)c[nH]c2c1Br result="< 6.30"
molecule=COC(=O)Nc1ccc2c(-c3nc(N[C@H]4CCCNC4)ncc3C(F)(F)F)c[nH]c2c1C(F)(F)F result="< 6.30"
molecule=COC(=O)Nc1ccc2c(-c3nc(N[C@H]4CCCNC4)ncc3Br)c[nH]c2c1Br result="< 6.30"

Q: Which pIC50 reading was recorded for the molecule COC(=O)Nc1ccc2c(-c3nc(N[C@H]4CCCNC4)ncc3C(F)(F)F)c[nH]c2c1[S+]([O-])C(C)C (stereo partly shown) ?
Result: < 6.30

Q: Likewise for CC(=O)Nc1ccc2c(-c3nc(N[C@H]4CCCNC4)ncc3C(F)(F)F)c[nH]c2c1P(C)(C)=O ?
Result: < 6.30

Q: Likewise for CCOc1c(NC(=O)OC)ccc2c(-c3nc(N[C@H]4CCCN(C)C4)ncc3C(F)(F)F)c[nH]c12 ?
Result: < 6.30

Q: Likewise for COC(=O)Nc1ccc2c(-c3nc(NC4CC5(CNC5)C4)ncc3C(F)(F)F)c[nH]c2c1Br ?
Result: < 6.30

meta.source: patent US20230295130A1
